Experiment: ovarian cancer cell viability with rucaparib, profiling panel, oncology-focused library, rucaparib conditional (AID 1508598)
Conditions: patient-derived ovarian cancer cells, CellTiter-Glo viability, 144 h; at 0.313 µM; OCI-P5x cells; without rucaparib; stronger effect = lower value
MEASUREMENT_KIND: viability (%)
Use % as the unit, but write only the number.

Observe how each entry below is paired with its result.
Cc1sc2c(c1C)C(c1ccc(Cl)cc1)=N[C@@H](CC(N)=O)c1nnc(C)n1-2 :: 66.2
C/C(=C\c1csc(C)n1)[C@H]1C[C@@H]2O[C@]2(C)CCC[C@H](C)[C@H](O)[C@@H](C)C(=O)C(C)(C)[C@H](O)CC(=O)O1 :: 15.9
Cn1c(CCCC(=O)O)nc2cc(N(CCCl)CCCl)ccc21 :: 74.7

// switching to the query molecule
[in] // viability lookup, key: CC(C)[C@@]12O[C@@H]1[C@@H]1O[C@]13[C@]1(O[C@@H]1C[C@@H]1C4=C(CC[C@@]13C)C(=O)OC4)[C@@H]2O
[out] 8.22

###

Assay: ovarian cancer cell viability with rucaparib, profiling panel, oncology-focused library, rucaparib conditional (AID 1508598)
Details: patient-derived ovarian cancer cells, CellTiter-Glo viability, 144 h; at 1.25 µM; OCI-P5x cells; with rucaparib 20 µM; stronger effect = lower value; 100% = cells with rucaparib alone
MEASUREMENT_KIND: viability (%)
# unit: % | format: bare number

C/C(=C\c1csc(C)n1)[C@H]1C[C@@H]2O[C@@H]2CCC[C@H](C)[C@H](O)[C@@H](C)C(=O)C(C)(C)[C@H](O)CC(=O)O1 :: 46.3
Cn1cc(C2=C(c3cn(C4CCN(Cc5ccccn5)CC4)c4ccccc34)C(=O)NC2=O)c2ccccc21 :: 113

[in] Name the reported viability value associated with the compound O=S(=O)(CC1CS1)c1ccc(Oc2ccccc2)cc1 (stereo not given)
[out] 79

[in] Bench note: what viability did Cc1c(N)nc([C@H](CC(N)=O)NC[C@@H](N)C(N)=O)nc1C(=O)N[C@H](C(=O)N[C@@H](C)[C@H](O)[C@@H](C)C(=O)N[C@@H](C(=O)NCCc1nc(-c2nc(C(=O)NCCC[S+](C)C)cs2)cs1)[C@@H](C)O)C(O[C@H]1O[C@H](CO)[C@H](O)[C@@H](O)[C@H]1O[C@H]1O[C@H](CO)[C@@H](O)[C@H](OC(N)=O)[C@@H]1O)c1cnc[nH]1 (stereo not given in full) show?
[out] 62.8

[in] // viability lookup, key: C/C(=C\c1csc(C)n1)[C@H]1C[C@@H]2O[C@]2(C)CCC[C@H](C)[C@H](O)[C@@H](C)C(=O)C(C)(C)[C@H](O)CC(=O)O1
[out] 39.6

###

Test: differential killing of epithelial or mesenchymal cells, primary screen, imaging, PC-3E GFP, TEM4-18 mCherry, co-culture (AID 1345086);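 further: cells exposed to compound for 72 h before imaging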
Settings: imaging cell counts, measured here: epithelial PC-3E GFP cell survival, at 1 µM
Catalogue of normalised cell number values
// no unit string in output, number only

C=C1CC2C(CC[C@]3(C)C(=O)CCC23)[C@@]2(C)C=CC(=O)C=C12 (stereo not given in full) :: 1.01
CC(N)Cc1ccc(O)cc1 (stereo not given) :: 1.27
C[C@]12CCC3C(CC[C@@H]4CC(=O)CC[C@]34C)C1CCC2=O (stereo not given in full) :: 0.88
C=C[C@H]1CN2CC[C@H]1C[C@@H]2[C@H](O)c1ccnc2ccccc12 :: 0.87
COc1cc2c(cc1OC)[C@@H]1C(=O)c3ccc(OC)c(CC=C(C)C)c3O[C@@H]1CO2 :: 0.87
CC(=O)Oc1c2c(c(CC=C(C)C)c3c1C(=O)C1=C[C@@H]4CC5C(C)(C)OC(C/C=C(\C)C(=O)O)(C4=O)[C@@]15O3)OC(C)(CCC=C(C)C)C=C2 (stereo not given in full) :: 1.18
CCC(C)C(=O)O[C@H]1[C@H](O)C2C(CN3CC(C)CCC3[C@@]2(C)O)C2C[C@]34O[C@]5(O)C(OC(=O)C(C)(O)CC)CC[C@@]3(C)C5C(OC(C)=O)[C@@H](OC(C)=O)C4[C@@]21O (stereo not given in full) :: 1.11
C=Cc1cc(OC)c2c(c1)c(=O)oc1c2cc(OC)c2c(O)ccc([C@@H]3O[C@@H](C)[C@H](OC(C)=O)[C@H](N(C)C)[C@H]3O)c21 :: 0.41
Oc1cccc2cccnc12 :: 0.9
CC1[C@H](C)OC(=O)CC(O)CC(O)CC(O)CCC(O)C(O)C[C@]2(O)CC(O)C(C(=O)O)C(CC(OC3O[C@H](C)[C@@H](O)[C@H](N)[C@@H]3O)/C=C/C=C/C=C/C=C/CC/C=C/C=C/[C@H](C)[C@H]1O)O2 (stereo not given in full) :: 0.98

[in] Could you tell me which normalised cell number is on file for O=C1C=CC(=O)c2c(O)cccc21 ?
[out] 1.05

[in] Quick one: normalised cell number of C=CC[C@]1(O)CCC2C3CCC4=CC(=O)CCC4=C3C=C[C@@]21C (stereo not given in full) ?
[out] 0.92

[in] Requested read-out: normalised cell number. Entry: COc1cc2ccc(=O)oc2c2ccoc12
[out] 0.96
